experiment: yeast display, Sf9 membrane polyspecificity reagent, FACS + sequencing; frameworks hold sequencing errors
observable: polyreactivity (PSR sort gate)

Worked examples follow.
[[record]]
entry_sequence = "QVQLVESGGGLVQAGGSLRLSCAASGSIFSINTMVWYRLAPGKERELVAAISRTGGSTYYADSVKGRFTNSRDNAKNTVYLQMNSLKPEDTAVYYCGKDRRRSTYEYWGQCTQVTVSS"
endpoint_result = "high polyreactivity"

[[record]]
entry_sequence = "QVQLVESGGGLVQAGVRLRLSCPASGTTFYYNAMGRYRQAPGKERELVAAITSGGRTKYADSVKGRFTISRDNAKNTVYLQKNRLKPEDTAVYYCNTYNRRSGTLPKAYDYWGQGTQVTVSS"
endpoint_result = "high polyreactivity"

[[record]]
entry_sequence = "QVQLVESGGGLVQAGGSLRLSCAASGRIFGWYAMGWYRQAPGKERELVAAIDGGDDSTYYADSVKGRFTISRDNAKNTVYLQMNSLKPEDTAVYYCAVVGYNWGQGTQVTVSS"
endpoint_result = "low polyreactivity"

[[record]]
entry_sequence = "QVQLVESGGGLVQAGGSLRLSCAASGIIFRYNAMGWYRQAPGKERELVADITFSVGSTNYADSVKGRFTISRDNAKNTVYLQMNSLKPEDTAVYYCAAKFHSTYGNDDWGQGTQVTVSS"
endpoint_result = "low polyreactivity"

[[record]]
entry_sequence = "QVQLVESGGGLVQAGGSLRLSCAASGSTFGGYTMGGYRQAPGKERELVADITSSGSTNYADSLKGRFTISRDNAKNSVYLQMNSLKPEDTAVYYCAVRTYPGRFWYWGVDMVYWGQGTQVTVSS"
endpoint_result = "low polyreactivity"

[[record]]
entry_sequence = "QVQLVESGGALVQAGGSLRLSCAASGSTFVYYAMRWYRQTPGKERELVAAIRSDASTNYADSVKGRFTISRDNAKNTVYLQMNILKPEDTAVYYCNTAQLVSDEFDYWGQGTQVTVSS"
endpoint_result = "low polyreactivity"

[[record]]
entry_sequence = "QVQLVESGGGLVQAGGSLRLSCAASGFIFVYNAMGWYRQATGKERELVAAIDYGGGSTTYADSVKVRFTISRDNAKNTVYLQMNSLKPEDTAVYYCAAYYRYLDDIYEYEYWGQGTQVTVSS"
endpoint_result = "low polyreactivity"

[[record]]
entry_sequence = "QVQLVESGGGLVQAGGSLRLSCAASGFTFYSYAMGWYRQSPGKERELVAAISWSGTRTYYADSVKGRFTISRDTAKNTVYLQMNSLKPEDTAVYYCAARGYRYGYGYWGQGTQVTVSS"
endpoint_result = "high polyreactivity"


Query: Form field: reported polyreactivity (PSR sort gate) of QVQLVESGGGLVQAGGSLRLSCAASGRTFGIYALGWYRQAPGKERELVAAITGRGGSTHYADSVKGRFTISRDNAKNTVYLQMNSLKPEDTAVYYCNAEGVYYDYKYGYYGYDYWGQGTQVTVSS
Result: low polyreactivity

Query: Thanks! And QVQLVESGGCLVQAGGSLRLSCAASGSIFDGNTMGWYRQAPGKERELVAAITWSGGSTYYADSVKGRFTISRDNAKNTVYLQMNSLKPEDTAVYYCAAEYWDSDPYDYWGQGTQVTVSS ?
Result: low polyreactivity

Query: Now the same for QVQLVETGGGLVQAGGSHRLSCAASGSIFSSYVMGWYRQAPGKERELVDAISSGGRTYYADSVKGRFTISRDNAKNTVYLQMNSLKPDETAVYYCAARTRRYPRPGLSPGNYWGQGTQVTVSS
Result: high polyreactivity

---

experiment: yeast display, Sf9 membrane polyspecificity reagent, FACS + sequencing; frameworks hold sequencing errors
observable: polyreactivity (PSR sort gate)

Example entries begin here.
[[record]]
entry_sequence = "QVQLVESGGGFVQSGGSLRLSCAASGITFRYYTMGWYRQPPRKERELDAVISWSGGSTYYADSVKGRFTISRDNAKNTVYLQRNSLKPEDTAVYYCAAVRRISRYDYWGQGTQVTVSS"
endpoint_result = "high polyreactivity"

[[record]]
entry_sequence = "QVQLVESGGGLLQAAGSLSLSCAASGSIFKYYAMGWYRQAPGKERELVAAISASGGSTSYADSVKGRFTISRDNAKNTVYLQMNSLKPEDTAVYYCAADGVSYAYRYDYWGQGTQVTVSS"
endpoint_result = "low polyreactivity"

[[record]]
entry_sequence = "QVQLVESGGGLVQAGGSLRLSCAASGRIFSVNAMGWYRQAPGKERELVAAITTRGGTTYYADSVKGRFTISRDNAKNTVSLQMNSLKPEDTAVYYCAAESSWYVYWEWAHDYWGQGTQVTVSS"
endpoint_result = "low polyreactivity"

[[record]]
entry_sequence = "QVQLVESGVRLVQAGGRLRLSCAASGRIFDHNAMGWYRQAPGKERELVAAIDSGTSTNYADSVKGRFTISRDNAKNTVYLQMNSLKPEDTAVYYCARLLGPVRHKYDYDYWGQGTQVTVSS"
endpoint_result = "low polyreactivity"


Then there is this sequence:
Query: What value of polyreactivity (PSR sort gate) has been recorded for this entry: QVQLVESGGGLVQAGGSLRLSSAASGRIFYGYAMGWSRQAPGKERELVAAITRSSSTYFADSVKGRFTISRDNAKNTVYLQMNSLKPEDTAVYDCAVYRLSWIGSVQYEYWGQGTQVTVSS
Result: high polyreactivity

---

assay: yeast display, Sf9 membrane polyspecificity reagent, FACS + sequencing; frameworks hold sequencing errors
observable: polyreactivity (PSR sort gate)

Study these solved cases before continuing.
[[record]]
entry_sequence = "QVQLVESGGGLVQAGGSLRLSCAASGFIFGKYAMGWYRQAHGKERELVAAITSDGRTYYADSVKGRFTISRDNAKNTVYLQMNSLKPEDTAVYYCAATRYGHRYYYRPYEYWGQGTQVTVSS"
observable = "polyreactivity (PSR sort gate)"
endpoint_result = "high polyreactivity"

[[record]]
entry_sequence = "QVQLVESGGGLLQAGGSLRLSCAASGNTFITNAKGWYRQAPGKERDLVAAISSGGTTYYADSVKGRFTISRDTAKNTVYLQMYSLKPEDTAVYYCATDIHSVHNNRDKHDYDYWGQGTQVTVSS"
observable = "polyreactivity (PSR sort gate)"
endpoint_result = "low polyreactivity"

[[record]]
entry_sequence = "QVQLVESGGGLVQAGGILRLSCSASGRTLPAYVMGWYRQAPGKERELVAAITSGGGGTYFADSVKGRFTISRDNAKNTVYLQMNSMKPEDTAVYYCATTGNFFHYVYDFDYYYWGQGTQVTLSS"
observable = "polyreactivity (PSR sort gate)"
endpoint_result = "low polyreactivity"

[[record]]
entry_sequence = "QVQLVESGGGLVQAGGSLRLSCAASGLTLGSYAMGWYRLAPGKERELVAAISRRSGRTYYADSVKGRFTISRDNAKNTVYVQMNSLKPEDTAVYYCNRGYTAQVYTEFDYWGHGTQVTVSS"
observable = "polyreactivity (PSR sort gate)"
endpoint_result = "low polyreactivity"

[[record]]
entry_sequence = "QVQLVESGGGLVQAGGSLRLSCAASGFIFWAYDMGWYRQAPGKERELVAGIDWSGGSTYYADSVKGRFTISRDNAKNTVYLQMNSLKPEDTAVYYCAADRLLYGGGREYWGQGTQVTVSS"
observable = "polyreactivity (PSR sort gate)"
endpoint_result = "high polyreactivity"

[[record]]
entry_sequence = "QVQLVESGGGLVQAGGSLRLSCAASGFIFWGNAMGWYRQAPGKERELVAAISSSSGSTYYADSVKGRFTISRDNAKNTVYLQMNSLKPVDSAVYDCAVDTPRSYRAQGAYNYWGQGTQVTVSS"
observable = "polyreactivity (PSR sort gate)"
endpoint_result = "low polyreactivity"


Query: Returns the measured polyreactivity (PSR sort gate) for the input sequence. Input: QVQLVESGGGLVQAGGSLRLSCAASGRIFEIYALGWYRQAPGKERELVAAISWRGVSTYYADSVKGRFTISRDNAKNTVYLQMKSLKPEDTAVYYCNKDVDYFWYVEYDYWGQGTQVTVSS
Result: low polyreactivity

Query: How about QVQLVESGGGLVQAGGSLRLSCAASGFTFGSYARGWYRQAPGKERELVAAISWGGGSTYYADSVKGRFTISRDNAKNTVYLQMNSLKPEDTAVYYCNADAISSFGYWGQGTQVTVSS ?
Result: high polyreactivity

Query: What about QVQLVESGGGLVQAGGSLRLSCAASGIIVPYNAMGWYRQEPGKVRYLVSAITSGGSTYYADSVKGRFTISRDNAKNTVYLQMNSMKPEDTAVYYCAKVPLSARRNNQSWAYDYWGQGTQVTVSS ?
Result: low polyreactivity

Query: Now consider QVQLVESGGGLVQAGGSLRLSCAASGGIIEDNMGWYRQAPGKERELVAAIDLRADSTYYADSVKGRFTISRDNAKNTVYLQMNSLKPEDTAVYYCAAGARQGVYRGGDYWGQGTQVTVSS and answer again.
Result: low polyreactivity

Query: Now try QVQHVESGGGLVQAGGSLRLSCAASAFTFRFYAMGWYRQAPAKEMELVAAISWSGTSTYYADSVKGRFTLSRDNAKNTVYLQMNSLIQDDTAVYYCATQYRRRQRKYDYWGQGTQVTVSS .
Result: high polyreactivity
